# METHOD_SUMMARY: qHTS of pediatric cancer cell lines to identify multiple opportunities for drug repurposing: Confirmatory screen for control Hh wild type fibroblast cells (AID 1347121); further: nearly all actives have a fitted effect of over 70% in size
# CONDITION_SET: viability qHTS; series mostly up to 45.9 µM
Records with an inconclusive call do not appear. Calls of active or inactive are those of the source. The call rests on the fitted dose curve; in most records, active means well fitted cell-killing curve with a large enough effect; inconclusive means small, poorly fitted or top-dose-only effect, or effect the other way; inactive means flat fitted curve, though single readings scatter.
Hello, when you answer, please use one of the following outcomes: active, inactive

### Prompt Hello, I am checking results. What call was entered for CC=C1NC(=O)[C@H]2CSSCCC=C[C@H](CC(=O)N[C@H](C(C)C)C(=O)N2)OC(=O)[C@H](C(C)C)NC1=O ?
### Response inactive

### Prompt Hello, I am checking results. What call was entered for COc1cc2c(Oc3ccc(NC(=O)C4(C(=O)Nc5ccc(F)cc5)CC4)cc3F)ccnc2cc1OCCCN1CCOCC1 ?
### Response active

### Prompt Hello, I am checking results. What call was entered for CN(C)CC(C)(C)CNc1nn2c(-c3ccccc3)nnc2cc1C1CCC1 ?
### Response inactive

### Prompt Hello, I am checking results. What call was entered for Cc1c(Cn2c(C)nc3c(C(=O)O)cc(N4CCOCC4)cc32)cccc1C(F)(F)F ?
### Response inactive

### Prompt Hello, I am checking results. What call was entered for CC[C@H]1CN2CCc3cc(OC)c(OC)cc3[C@H]2C[C@@H]1C[C@@H]1NCCc2cc(OC)c(OC)cc21 ?
### Response inactive

### Prompt Hello, I am checking results. What call was entered for CC(C)c1cnn2c(NCc3ccccc3)cc(N[C@@H](CO)[C@H](O)CO)nc12 ?
### Response inactive

### Prompt Hello, I am checking results. What call was entered for Cc1[nH]nc2ccc(-c3cncc(OC[C@@H](N)Cc4ccccc4)c3)cc12 ?
### Response active

### Prompt Hello, I am checking results. What call was entered for CCC1=C[C@@H]2CN(C1)Cc1c([nH]c3ccccc13)[C@@](C(=O)OC)(c1cc3c(cc1OC)N(C)[C@@H]1[C@@](O)(C(=O)OC)[C@H](OC(C)=O)[C@]4(CC)C=CCN5CC[C@]31[C@@H]54)C2 ?
### Response inactive

### Prompt Hello, I am checking results. What call was entered for CCNC(=O)Nc1ccc2ncc(Nc3ccc(C)cc3)nc2n1 ?
### Response inactive

* * *

Task for the reader: assign each of the following compounds its reported activity, percent of control.
# METHOD_SUMMARY: qHTS profiling for inhibitors of Plasmodium falciparum (DD2) proliferation (AID 743323)
# CONDITION_SET: lower = more inhibition; at 28.7 µM (top of the series)
Write down the numeric answer in % and omit the unit.

### Prompt Tell me its activity, percent of control given CC(=O)Nc1sc2c(c1-c1nc3ccccc3s1)CNC2 as the entry.
### Response 96.7

### Prompt Tell me its activity, percent of control given Cc1cn(-c2cc(NC(=O)c3ccc(C)c(Nc4nccc(-c5cccnc5)n4)c3)cc(C(F)(F)F)c2)cn1 as the entry.
### Response 12.7

### Prompt Tell me its activity, percent of control given CC(C)(C)c1cc(NC(=O)Nc2ccc(-c3cn4c(n3)sc3cc(OCCN5CCOCC5)ccc34)cc2)no1 as the entry.
### Response 0.456

### Prompt Tell me its activity, percent of control given c1ccc2c(CCNc3ccc(Nc4ccncc4)cc3)c[nH]c2c1 as the entry.
### Response 6.37

### Prompt Tell me its activity, percent of control given Nc1cc(C(F)(F)F)c(-c2cc(N3CCOCC3)nc(N3CCOCC3)n2)cn1 as the entry.
### Response 69.9

### Prompt Tell me its activity, percent of control given Cc1ccc(C(=O)Nc2cccc(C(F)(F)F)c2)cc1-c1ccc2nc(NCCN3CCOCC3)ncc2c1 as the entry.
### Response 0.812

### Prompt Tell me its activity, percent of control given Clc1ccc2ncc(-c3cccc(NC4CNC4)n3)n2c1 as the entry.
### Response 12

### Prompt Tell me its activity, percent of control given CC1(O)CC(c2nc(-c3ccc4ccc(-c5ccccc5)nc4c3)c3c(N)nccn23)C1 (centres undefined) as the entry.
### Response 2.21

### Prompt Tell me its activity, percent of control given C=CC(=O)Nc1cc2c(Nc3ccc(F)c(Cl)c3)ncnc2cc1C#CC(C)(C)N1CCN(C)CC1 as the entry.
### Response -0.164
